target: CCKB receptor (Mus musculus, UniProt P56481); construct: The whole brains from male mice (CD1 22-25 g; Charles River) were removed; from tissue; host or cells: cerebral cortex membranes of male CD1 mice; test: CCKB receptor radioligand binding assay in mouse cortical membranes; conditions: [125I]-CCK8(S) 200 pM, 150 min at 21±3°, read-out: CCKB pKi (converted)
Sequence (P56481 whole entry): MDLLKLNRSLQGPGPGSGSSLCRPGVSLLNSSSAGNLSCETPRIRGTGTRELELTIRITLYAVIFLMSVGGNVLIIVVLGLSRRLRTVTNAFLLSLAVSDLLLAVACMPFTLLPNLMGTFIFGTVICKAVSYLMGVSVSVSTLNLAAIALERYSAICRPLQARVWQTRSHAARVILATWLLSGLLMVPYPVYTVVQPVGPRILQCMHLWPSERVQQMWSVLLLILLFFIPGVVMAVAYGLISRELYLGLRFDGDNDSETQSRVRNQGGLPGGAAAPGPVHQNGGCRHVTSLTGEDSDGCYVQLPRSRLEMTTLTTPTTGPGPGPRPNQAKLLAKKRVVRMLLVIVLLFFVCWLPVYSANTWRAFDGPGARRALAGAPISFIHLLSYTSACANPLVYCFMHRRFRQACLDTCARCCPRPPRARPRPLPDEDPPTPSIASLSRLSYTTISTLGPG
// reported log10 Ki per item
In plain terms, each number is the log10 of measured Ki in nM.

Below are worked cases with known answers.
molecule: O=C(O)c1cc(NC(=O)c2cc(-c3ccc4ccccc4c3)[nH]c2CC2CCCCCC2)cc(C(=O)O)c1
measured: 1.94
--
molecule: O=C(O)c1cccc(NC(=O)c2nc(-c3cccc(O)c3)[nH]c2CCC23CC4CC(CC(C4)C2)C3)c1
measured: 2.59

Here is the next item to consider.
Which value of log10 Ki has been reported for `O=C(O)c1cccc(NC(=O)c2nc(-c3ccc(F)cc3)[nH]c2CCC23CC4CC(CC(C4)C2)C3)c1` in the records?
2.49

----------
molecular target: gastrin receptor (Rattus norvegicus); construct: The stomach was excised and flushed with ca. 1 ml of unbuffered physiological saline solution; from tissue; host or cells: isolated whole stomach of immature rats (ca. 21 days old); test: gastrin antagonist activity in immature rat stomach assay (pentagastrin dose-response, acid secretion); details: isolated immature rat stomach, cumulative pentagastrin dose-response curves, read-out: Gastrin pKb (converted)
Counter-ions that a name gives are not always drawn.
Short version: Kb at least 30 nM is true, less is false.

Study these solved cases before continuing.
molecule: O=C(O)c1cc(NC(=O)c2cc(-c3ccccc3)[nH]c2CC23CC4CC(CC(C4)C2)C3)cc(C(=O)O)c1
labelClass: true
//
molecule: O=C(O)c1cc(NC(=O)c2[nH]c(-c3ccccc3)nc2CC2CCCCCC2)cc(C(=O)O)c1
labelClass: true
//
molecule: Cc1ccc(C)c(-c2nc(C(=O)Nc3cccc(C(=O)O)c3)c(CCC34CC5CC(CC(C5)C3)C4)[nH]2)c1
labelClass: true

Given the entry `CN(C)c1ccc(-c2nc(C(=O)Nc3cccc(C(=O)O)c3)c(CCC34CC5CC(CC(C5)C3)C4)[nH]2)cc1` , answer whether its Kb meets or surpasses 30 nM.
true

Param item: Cc1ccccc1-c1nc(C(=O)Nc2cccc(CCC(=O)O)c2)c(CCC23CC4CC(CC(C4)C2)C3)[nH]1 [Example 97, Trifluoroacetic Acid Salt]
true

Param item: `COc1ccccc1-c1nc(C(=O)Nc2cccc(C(=O)O)c2)c(CCC23CC4CC(CC(C4)C2)C3)[nH]1`
false

Param item: Cc1ccc(NC(=O)c2nc(C3CC4C=CC3C4)[nH]c2CCC23CC4CC(CC(C4)C2)C3)cc1C(=O)O (racemic)
false

Param item: `Cc1cc(C)c(-c2nc(C(=O)Nc3ccc(F)c(C(=O)O)c3)c(CCC34CC5CC(CC(C5)C3)C4)[nH]2)c(C)n1`
true

Param item: O=C(O)c1cccc(NC(=O)c2nc(C3CCCO3)[nH]c2CCC23CC4CC(CC(C4)C2)C3)c1 (stereo not shown)
false

Param item: `Cc1ccccc1-c1nc(CCC23CC4CC(CC(C4)C2)C3)c(C=Cc2cccc(C(=O)O)c2)n1C`
true

Param item: `O=C(O)c1cccc(NC(=O)c2[nH]c(C3CCCCC3)nc2CCC23CC4CC(CC(C4)C2)C3)c1`
false

Param item: `Cc1cc(C)c(-c2nc(C(=O)Nc3cccc(C(=O)O)c3)c(CCC34CC5CC(CC(C5)C3)C4)[nH]2)c(C)c1`
false

----------
// reported Ki per item
molecular target: CCKA receptor (Cavia porcellus); construct: The pancreatata were removed from male guineau-pigs (200-300 g; Dunkin Hartley); from tissue; host or cells: pancreas membranes of male Dunkin Hartley guinea-pigs; experiment: CCKA binding assay in guinea-pig pancreas membranes; settings: [125I]-CCK8(S) 200 pM, with 0.375 μM PD134,308, read-out: CCKA pKi (converted)
Sequence (Q63931 whole entry): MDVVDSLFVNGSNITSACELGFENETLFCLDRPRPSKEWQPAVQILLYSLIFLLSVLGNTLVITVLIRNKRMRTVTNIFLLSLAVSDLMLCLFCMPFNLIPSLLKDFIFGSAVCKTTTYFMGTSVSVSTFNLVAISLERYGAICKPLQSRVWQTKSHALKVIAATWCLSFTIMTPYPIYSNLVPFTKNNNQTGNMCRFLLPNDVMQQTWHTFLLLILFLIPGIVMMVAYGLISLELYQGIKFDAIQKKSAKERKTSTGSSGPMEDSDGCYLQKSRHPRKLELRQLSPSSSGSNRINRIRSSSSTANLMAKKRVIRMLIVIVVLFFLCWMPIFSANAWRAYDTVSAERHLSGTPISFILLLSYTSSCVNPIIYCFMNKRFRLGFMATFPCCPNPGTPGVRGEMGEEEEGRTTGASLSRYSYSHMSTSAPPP
API: value field is a number in nM; no unit string.

Below are worked cases with known answers.
compound: O=C(O)c1cccc(NC(=O)c2[nH]c(C3CCCCC3)nc2CCC23CC4CC(CC(C4)C2)C3)c1 [Example 76]
Ki / nM: 631
--
compound: O=C(O)c1cccc(NC(=O)c2nc(C34CCC(CC3)CC4)[nH]c2COC23CC4CC(CC(C4)C2)C3)c1 [Example 221]
Ki / nM: 794

Here is the next item to consider.
Which value of Ki has been reported for Cc1cc(C)c(-c2nc(C(=O)Nc3ccc(C)c(C(=O)O)c3)c(CCC34CC5CC(CC(C5)C3)C4)[nH]2)c(C)c1 [Example 155] in the records?
126

----------
// reported Ki per item
target: CCKB receptor (Mus musculus, UniProt P56481); construct: The whole brains from male mice (CD1 22-25 g; Charles River) were removed; from tissue; host or cells: cerebral cortex membranes of male CD1 mice; test: CCKB receptor radioligand binding assay in mouse cortical membranes; conditions: [125I]-CCK8(S) 200 pM, 150 min at 21±3°, read-out: CCKB pKi (converted)
API: value field is a number in nM; no unit string.

compound: O=C(O)c1cccc(NC(=O)c2nc(CC3CCCCC3)[nH]c2CCC23CC4CC(CC(C4)C2)C3)c1 [Example 193]
observable: Ki
unitsLabel: nM
measured: 57.5
--
compound: O=C(O)c1cccc(NC(=O)c2nc(C3CCCO3)[nH]c2CCC23CC4CC(CC(C4)C2)C3)c1 (stereo not shown) [Example 186]
observable: Ki
unitsLabel: nM
measured: 155

Which value of Ki has been reported for Cn1c(-c2ccccc2)cc(C(=O)Nc2cc(C(=O)O)cc(C(=O)O)c2)c1CC12CC3CC(CC(C3)C1)C2 [Example 8] in the records?
1020

Param item: Cc1cc(F)ccc1-c1nc(C(=O)Nc2cccc(C(=O)O)c2)c(CCC23CC4CC(CC(C4)C2)C3)[nH]1 [Example 96]
166

Param item: Cc1ccccc1-c1nc(CCC23CC4CC(CC(C4)C2)C3)c(C(=O)Nc2cccc(C(=O)O)c2)n1C [Example 74]
324

Param item: O=C(O)c1ccc(NC(=O)c2nc(-c3ccccc3F)[nH]c2CCC23CC4CC(CC(C4)C2)C3)cc1 [Example 51]
2630

Param item: O=C(O)c1cccc(NC(=O)c2cc(-c3ccccc3)[nH]c2CC23CC4CC(CC(C4)C2)C3)c1 [Example 3]
1450

----------
// reported log10 of Ki per item
molecular target: CCKB receptor (Mus musculus, UniProt P56481); construct: The whole brains from male mice (CD1 22-25 g; Charles River) were removed; from tissue; host or cells: cerebral cortex membranes of male CD1 mice; assay: CCKB receptor radioligand binding assay in mouse cortical membranes; conditions: [125I]-CCK8(S) 200 pM, 150 min at 21±3°, read-out: CCKB pKi (converted)
In plain terms, each number is the log10 of measured Ki in nM.

Which value of log10 of Ki has been reported for `CC1(c2nc(C(=O)Nc3cccc(C(=O)O)c3)c(CCC34CC5CC(CC(C5)C3)C4)[nH]2)CCCCC1` in the records?
1.25

Param item: `O=C(O)CNC(=O)c1nc(-c2ccccc2F)[nH]c1CCC12CC3CC(CC(C3)C1)C2`
3.22

Param item: `O=C(O)Cc1cccc(NC(=O)c2nc(-c3ccccc3)[nH]c2CCC23CC4CC(CC(C4)C2)C3)c1`
1.12

----------
biological target: gastrin receptor (Rattus norvegicus, UniProt P30553); construct: The stomach was excised and flushed with ca. 1 ml of unbuffered physiological saline solution; from tissue; host or cells: isolated whole stomach of immature rats (ca. 21 days old); test: gastrin antagonist activity in immature rat stomach assay (pentagastrin dose-response, acid secretion); settings: isolated immature rat stomach, cumulative pentagastrin dose-response curves, read-out: Gastrin pKb (converted)
Sequence (P30553 whole entry): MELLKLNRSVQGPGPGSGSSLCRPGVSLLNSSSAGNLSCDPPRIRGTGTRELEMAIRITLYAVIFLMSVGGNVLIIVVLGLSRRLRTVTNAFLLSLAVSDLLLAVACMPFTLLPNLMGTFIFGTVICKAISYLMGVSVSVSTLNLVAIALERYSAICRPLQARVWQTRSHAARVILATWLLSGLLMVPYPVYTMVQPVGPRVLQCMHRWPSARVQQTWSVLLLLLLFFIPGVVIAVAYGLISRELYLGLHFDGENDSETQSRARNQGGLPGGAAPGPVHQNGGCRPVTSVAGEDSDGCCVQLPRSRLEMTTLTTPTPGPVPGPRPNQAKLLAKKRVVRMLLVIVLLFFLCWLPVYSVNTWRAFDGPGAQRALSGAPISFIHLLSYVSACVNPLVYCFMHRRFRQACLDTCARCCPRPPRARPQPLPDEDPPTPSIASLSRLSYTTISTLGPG
// reported Kb per item
API: value field is a number in nM; no unit string.

Below are worked cases with known answers.
compound: CC(C(=O)O)c1cccc(NC(=O)c2nc(C3CCCCC3)[nH]c2CCC23CC4CC(CC(C4)C2)C3)c1 (racemic) [Example 255]
Kb, nM: 178
//
compound: O=C(O)CC(=O)Nc1cccc(NC(=O)c2nc(C3CCCCC3)[nH]c2CCC23CC4CC(CC(C4)C2)C3)c1 [Example 267]
Kb, nM: 112
//
compound: Cc1ccc(NC(=O)c2nc(C(C)(C)C)[nH]c2CCC23CC4CC(CC(C4)C2)C3)cc1C(=O)O [Example 198]
Kb, nM: 8.13
//
compound: Cc1cc(F)ccc1-c1nc(C(=O)Nc2cccc(C(=O)O)c2)c(CCC23CC4CC(CC(C4)C2)C3)[nH]1 [Example 96]
Kb, nM: 12.3
//
compound: O=C(O)c1cccc(NC(=O)c2nc(-c3ccc(O)cc3)[nH]c2CCC23CC4CC(CC(C4)C2)C3)c1 [Example 63]
Kb, nM: 1620

Which value of Kb has been reported for Cc1ccc(NC(=O)c2nc(C3CCC4CC3C4(C)C)[nH]c2CCC23CC4CC(CC(C4)C2)C3)cc1C(=O)O (stereo not shown) [Example 191] in the records?
67.6

Param item: Cc1ccc(NC(=O)c2nc(C34CCC(CC3)CC4)[nH]c2COC23CC4CC(CC(C4)C2)C3)cc1C(=O)O [Example 300]
3.02

Param item: O=C(O)Cc1c(F)ccc(NC(=O)c2nc(C3CCCCC3)[nH]c2CCC23CC4CC(CC(C4)C2)C3)c1F [Example 270]
195

Param item: Cc1ccccc1-c1nc(C(=O)Nc2cccc(C(=O)O)c2C)c(CCC23CC4CC(CC(C4)C2)C3)[nH]1 [Example 104]
42.7
